Ref: the supplement of paper PMC4466140

- studyTarget: SpNbp2
- methodSummary: SPOT peptide array binding signal intensity (averaged, normalized) (arbitrary units (background-subtracted, floor 0; scale differs between SH3 domains)); higher = stronger binding of the SH3 domain to the peptide
measuredQuantity: SPOT peptide array binding signal intensity

INSERT INTO assay_data (binder, reading) VALUES
  ('YLTRPLPSTPNEDSR', '≤ 0'),
  ('AAAPKHAPPPVPNET', '≤ 0');

// next item, SPOT peptide array binding signal intensity requested
Could you share which SPOT peptide array binding signal intensity value was measured for `QQEQNTPPLPPKPKS` ? ≤ 0
